Measurement record for HCV RdRp (NS5B); quantity recorded: IC50.

compound: NCCCC[C@H](NC(=O)OCC1c2ccccc2-c2ccccc21)C(=O)Nc1ccc(F)cc1 [Compound 44]
IC50: > 50 µM
--
compound: Cc1ccc(NC(=O)C(CNC(=O)CNC(=O)CN)NC(=O)OCC2c3ccccc3-c3ccccc32)cc1 (stereo not shown) [Compound 222]
IC50: 10 to 50 µM
--
compound: NCCCC[C@@H](NC(=O)OCC1c2ccccc2-c2ccccc21)C(=O)Nc1ccc(-c2ccccc2)cc1 [Compound 144]
IC50: < 10 µM
--
compound: Cc1ccc(NC(=O)C2CC(O)CN2C(=O)OCC2c3ccccc3-c3ccccc32)cc1 (stereo not shown) [Compound 87]
IC50: > 50 µM

* * *

Reported values of pIC50 for individual entries
biological target: HCV RdRp (NS5B) (UniProt P26663)
Sequence (P26663 whole entry, looked up): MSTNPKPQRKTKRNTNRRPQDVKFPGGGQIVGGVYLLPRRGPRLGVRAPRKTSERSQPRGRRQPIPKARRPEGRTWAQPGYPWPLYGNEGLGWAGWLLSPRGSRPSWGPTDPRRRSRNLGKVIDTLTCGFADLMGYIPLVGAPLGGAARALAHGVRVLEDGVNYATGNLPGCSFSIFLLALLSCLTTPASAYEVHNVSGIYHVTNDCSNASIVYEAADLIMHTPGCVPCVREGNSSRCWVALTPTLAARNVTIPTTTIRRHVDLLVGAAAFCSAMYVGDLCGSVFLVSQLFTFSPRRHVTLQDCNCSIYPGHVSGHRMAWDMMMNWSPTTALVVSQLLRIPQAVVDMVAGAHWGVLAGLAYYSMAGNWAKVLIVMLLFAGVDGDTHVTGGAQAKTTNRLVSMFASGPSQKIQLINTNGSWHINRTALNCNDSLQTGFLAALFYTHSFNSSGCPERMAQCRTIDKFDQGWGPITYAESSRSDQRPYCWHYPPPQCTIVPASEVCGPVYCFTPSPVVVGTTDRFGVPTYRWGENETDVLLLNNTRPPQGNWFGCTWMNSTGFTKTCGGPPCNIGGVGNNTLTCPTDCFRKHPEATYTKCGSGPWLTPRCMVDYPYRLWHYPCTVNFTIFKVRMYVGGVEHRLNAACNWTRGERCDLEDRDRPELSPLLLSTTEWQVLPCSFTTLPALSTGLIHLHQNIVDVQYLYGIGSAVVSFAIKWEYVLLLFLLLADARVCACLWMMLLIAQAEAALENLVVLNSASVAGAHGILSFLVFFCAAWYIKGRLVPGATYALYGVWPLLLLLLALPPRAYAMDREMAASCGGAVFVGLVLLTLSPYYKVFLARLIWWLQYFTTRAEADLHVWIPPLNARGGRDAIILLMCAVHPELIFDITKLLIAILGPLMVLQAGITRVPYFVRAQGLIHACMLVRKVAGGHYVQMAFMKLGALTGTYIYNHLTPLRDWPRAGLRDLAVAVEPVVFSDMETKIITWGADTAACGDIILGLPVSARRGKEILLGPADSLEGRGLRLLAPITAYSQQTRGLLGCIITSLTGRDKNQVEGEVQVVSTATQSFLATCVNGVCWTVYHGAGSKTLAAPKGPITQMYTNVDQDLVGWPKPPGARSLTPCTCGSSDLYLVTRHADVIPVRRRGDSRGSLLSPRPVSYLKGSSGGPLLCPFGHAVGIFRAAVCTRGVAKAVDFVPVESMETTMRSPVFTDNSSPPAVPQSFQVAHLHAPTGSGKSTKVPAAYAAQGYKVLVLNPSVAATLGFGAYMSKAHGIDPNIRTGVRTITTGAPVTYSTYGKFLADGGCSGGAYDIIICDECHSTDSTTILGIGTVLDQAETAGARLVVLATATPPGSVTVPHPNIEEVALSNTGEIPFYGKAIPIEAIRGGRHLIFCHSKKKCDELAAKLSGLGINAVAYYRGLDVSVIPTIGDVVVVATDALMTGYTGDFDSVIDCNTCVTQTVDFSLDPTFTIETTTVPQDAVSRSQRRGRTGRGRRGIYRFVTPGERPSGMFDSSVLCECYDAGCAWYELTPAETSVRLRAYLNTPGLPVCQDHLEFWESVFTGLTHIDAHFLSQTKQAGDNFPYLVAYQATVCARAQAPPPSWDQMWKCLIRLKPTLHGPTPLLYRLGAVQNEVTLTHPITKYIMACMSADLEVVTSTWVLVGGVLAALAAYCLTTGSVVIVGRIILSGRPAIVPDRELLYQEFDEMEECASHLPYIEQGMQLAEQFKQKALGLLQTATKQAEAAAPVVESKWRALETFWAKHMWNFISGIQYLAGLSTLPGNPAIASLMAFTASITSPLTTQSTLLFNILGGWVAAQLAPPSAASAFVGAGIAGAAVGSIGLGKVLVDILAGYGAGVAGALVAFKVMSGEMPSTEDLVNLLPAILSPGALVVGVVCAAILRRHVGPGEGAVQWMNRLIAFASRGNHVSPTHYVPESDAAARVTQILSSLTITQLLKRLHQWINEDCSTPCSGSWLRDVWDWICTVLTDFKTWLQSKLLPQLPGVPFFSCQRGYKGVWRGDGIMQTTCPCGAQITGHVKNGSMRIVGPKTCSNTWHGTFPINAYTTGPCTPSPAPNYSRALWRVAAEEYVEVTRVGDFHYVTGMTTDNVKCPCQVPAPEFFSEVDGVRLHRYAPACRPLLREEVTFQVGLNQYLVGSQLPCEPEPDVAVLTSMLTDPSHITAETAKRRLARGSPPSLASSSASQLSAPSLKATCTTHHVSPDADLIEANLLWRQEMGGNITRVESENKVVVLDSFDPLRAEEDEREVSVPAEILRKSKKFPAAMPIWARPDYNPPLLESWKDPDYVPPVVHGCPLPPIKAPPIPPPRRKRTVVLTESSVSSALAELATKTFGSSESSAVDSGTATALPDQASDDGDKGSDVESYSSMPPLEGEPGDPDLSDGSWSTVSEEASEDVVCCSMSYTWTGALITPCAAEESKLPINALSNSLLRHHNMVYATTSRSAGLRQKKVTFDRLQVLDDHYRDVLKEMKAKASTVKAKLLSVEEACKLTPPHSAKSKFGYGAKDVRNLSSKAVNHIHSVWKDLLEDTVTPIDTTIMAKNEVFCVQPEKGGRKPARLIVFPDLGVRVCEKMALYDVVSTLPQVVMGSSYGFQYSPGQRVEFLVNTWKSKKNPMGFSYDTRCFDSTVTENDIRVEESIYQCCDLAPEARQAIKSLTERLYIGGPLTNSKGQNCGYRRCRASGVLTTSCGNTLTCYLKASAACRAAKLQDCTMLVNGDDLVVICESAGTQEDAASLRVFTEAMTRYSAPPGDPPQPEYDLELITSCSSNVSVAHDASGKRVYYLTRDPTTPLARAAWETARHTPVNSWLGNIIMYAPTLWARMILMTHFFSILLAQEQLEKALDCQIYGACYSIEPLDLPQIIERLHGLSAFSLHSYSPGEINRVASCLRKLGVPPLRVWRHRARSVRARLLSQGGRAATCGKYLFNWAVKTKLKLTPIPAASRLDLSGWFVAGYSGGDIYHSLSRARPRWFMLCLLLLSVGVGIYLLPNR
pIC50: −log10 of the molar value.
readoutLabel: pIC50

compound: Cc1ccc(NC(=O)C(CCNC(=O)CCN)NC(=O)OCC2c3ccccc3-c3ccccc32)cc1 (stereo not shown)
testResult: 4.30 to 5.00
//
compound: Cc1ccc(NC(=O)[C@H](CCCCN)NC(=O)COc2ccccc2)cc1
testResult: < 4.30
//
compound: COc1ccc(CNCC(=O)N[C@@H](CCCCN)C(=O)Nc2ccc(C)cc2)cc1
testResult: < 4.30
//
compound: Cc1ccc(NC(=O)C(CCCNC(=O)CN)NC(=O)OCC2c3ccccc3-c3ccccc32)cc1 (stereo not shown)
testResult: > 5.00

* * *

// values below are pIC50; system is HCV RdRp (NS5B)
pIC50: −log10 of the molar value.

compound: O=C(CC1CNCCN1C(=O)Nc1ccc(OCc2ccccc2)cc1)Nc1ccc(C2CCCCC2)cc1 (stereo not shown)
pIC50: 4.30 to 5.00
//
compound: Cc1ccc(NC(=O)C(CCCN)NC(=O)Nc2ccc(-c3ccccc3)cc2)cc1 (stereo not shown) [Compound 188]
pIC50: < 4.30
//
compound: NCCCC[C@H](NC(=O)OCC1c2ccccc2-c2ccccc21)C(=O)Nc1ccc(-c2ccccc2)cc1
pIC50: > 5.00
//
compound: Cc1cc2cc(NC(=O)[C@H](CCCCN)NC(=O)Nc3ccc4c(c3)Cc3ccccc3-4)ccc2[nH]1
pIC50: > 5.00
//
compound: Cc1ccc(NC(=O)[C@H](CCCCN)NC(=O)NS(=O)(=O)c2ccccc2)cc1
pIC50: < 4.30
//
compound: CC(C)(C)c1ccc(NC(=O)[C@H](Cc2ccc(CN)cc2)NC(=O)NC(c2ccccc2)c2ccccc2)cc1
pIC50: > 5.00
//
compound: Cc1ccc(NC(=O)[C@H](CCCCN)NC(=O)Nc2ccc(OCc3ccc(Cl)cc3Cl)cc2)cc1
pIC50: > 5.00

* * *

biological target: HCV RdRp (NS5B)
readoutLabel: IC50

compound: Cc1ccc(NC(=O)C(CCCCN)NC(=O)NCc2ccccc2)cc1 (stereo not shown) [Compound 133]
readoutLabel: IC50
testResult: > 50 µM

compound: Cc1ccc(NC(=O)[C@H](CCCCN)NC(=O)COc2ccc(I)cc2)cc1
readoutLabel: IC50
testResult: > 50 µM

compound: Cc1ccc(NC(=O)C(Cc2ccc(CN)cc2)NC(=O)Nc2ccc(-c3ccccc3)cc2)cc1 (stereo not shown)
readoutLabel: IC50
testResult: < 10 µM

compound: Cc1ccc(NC(=O)C(CCCCCN)NC(=O)OCC2c3ccccc3-c3ccccc32)cc1 (stereo not shown)
readoutLabel: IC50
testResult: < 10 µM

compound: Cc1ccc(NC(=O)C(CCCNC(N)=O)NC(=O)OCC2c3ccccc3-c3ccccc32)cc1 (stereo not shown)
readoutLabel: IC50
testResult: > 50 µM

compound: Cc1ccc(NC(=O)C(CCCCN)NS(=O)(=O)c2ccc(-c3ccccc3)cc2)cc1 (stereo not shown)
readoutLabel: IC50
testResult: > 50 µM

compound: Cc1ccc(NC(=O)[C@H](CCCCN)NC(=O)Nc2ccc(OCc3ccccc3)cc2)cc1
readoutLabel: IC50
testResult: 10 to 50 µM

compound: COC(=O)C(Cc1c[nH]c2ccccc12)NC(=O)[C@H](CCCCN)NC(=O)OCC1c2ccccc2-c2ccccc21 (mixture of isomers)
readoutLabel: IC50
testResult: > 50 µM

compound: Cc1ccc(NC(=O)C(CCCCN)NC(=O)CNc2cccc(C(F)(F)F)c2)cc1 (stereo not shown)
readoutLabel: IC50
testResult: > 50 µM

compound: Cc1ccc(NC(=O)C(CCCCN)NC(=O)c2ccc(C)c3ccccc23)cc1 (stereo not shown)
readoutLabel: IC50
testResult: > 50 µM

compound: Cc1ccc(NC(=O)C(CCCCN)NC(=O)CN(c2ccccc2)C2CCCCC2)cc1 (stereo not shown)
readoutLabel: IC50
testResult: > 50 µM

compound: CC(=O)Nc1cccc(NC(=O)[C@H](CCCCN)NC(=O)OCC2c3ccccc3-c3ccccc32)c1
readoutLabel: IC50
testResult: > 50 µM

compound: Cc1cc2cc(NC(=O)[C@H](CCCNC(=O)CN)NC(=O)Nc3ccc4c(c3)Cc3ccccc3-4)ccc2[nH]1
readoutLabel: IC50
testResult: < 10 µM

compound: Cc1cc2cc(NC(=O)C(Cc3ccc(CN)cc3)NC(=O)Nc3ccc(-c4ccccc4)cc3)ccc2[nH]1 (stereo not shown)
readoutLabel: IC50
testResult: 10 to 50 µM

compound: CC(C)(C)c1ccc(NC(=O)[C@H](Cc2ccc(CN)cc2)NC(=O)Nc2ccc3c(c2)Cc2ccccc2-3)cc1
readoutLabel: IC50
testResult: < 10 µM

compound: Cc1ccc(NC(=O)[C@H](CCCCN)NC(=O)CNc2cccc(Cl)c2)cc1
readoutLabel: IC50
testResult: > 50 µM
